Assay System: Bcl-2-like protein 2 (Homo sapiens)
Test Description: modulators of Bim-Bcl-W protein interaction, dose response, biochemical, multiplexed, bead-based flow cytometry, fluorescence (AID 1330)
Test Conditions: Bim-Bcl-W binding
Active and inactive are the calls of the source. How the calls were made is not given here.
Select the correct class. Options are active, inactive and nothing else.

Consider the following illustrative entries.
{"columns": ["Structure Smiles String", "Class Name"],
 "data": [
  ["O=C(N/N=C/c1ccc(O)c(O)c1O)/C(=C/c1ccc([N+](=O)[O-])cc1)NC(=O)c1ccccc1", "inactive"],
  ["CCC(=O)N(CC)C1=C(O)c2ccccc2C(=O)C1=O", "inactive"],
  ["COc1cccc(/C=N/Nc2nn3cnnc3c3ccccc23)c1", "inactive"]
]}

[Q] # outcome recorded in this test, key = O=[N+]([O-])c1ccc(N/N=C/c2ccc(O)c(O)c2O)c(S(=O)(=O)N2CCOCC2)c1
[A] active

[Q] For this compound, state the assay outcome: COc1cccc(/C=N/Nc2nn3cnnc3c3ccccc23)c1O
[A] inactive
